Each entry below lists one item and its recorded CC50 at 24 h value.
test: in vitro; conditions: human
Positions of bridges follow the written chain, without caps; N, C: chain ends. Non-standard residues stand in square brackets, D forms with d. Residues, ends and D or L forms follow the SMILES beside them. *: point of attachment. Decanoyl(3R-OH) = CCCCCCC[C@@H](O)CC(=O)*; Butanoyl(4-OPh) = O=C(CCCOc1ccccc1)*; dDab = NCC[C@@H](N)C(=O)O; Nle = CCCC[C@H](N)C(=O)O; dDap = NC[C@@H](N)C(=O)O; Dab = NCC[C@H](N)C(=O)O; X5 = O=C(CCCCCCCO)*

Record excerpt, results attached:
CC(C)C[C@@H]1NC(=O)[C@H](CCN)NC(=O)[C@H](CCN)NC(=O)[C@H](Cc2ccccc2)NC(=O)[C@@H](CC(C)C)NC(=O)[C@H](CCN)NC(=O)[C@@H](NC(=O)[C@@H](CCN)NC(=O)CCCOc2ccccc2)CCNC1=O [compound 6521] ({Butanoyl(4-OPh)}-[dDab][Dab][Dab][dL]F[Dab][Dab]L; lactam 2-C): > 300 µM
CCCCCCC[C@@H](O)CC(=O)N[C@H](CN)C(=O)N[C@H]1CCNC(=O)[C@H](CC(C)C)NC(=O)[C@H](CCN)NC(=O)[C@H](CCN)NC(=O)[C@H](CCCC)NC(=O)[C@@H](Cc2ccccc2)NC(=O)[C@H](CCN)NC1=O [compound 9294] ({Decanoyl(3R-OH)}-[dDap][Dab][Dab][dF][Nle][Dab][Dab]L; lactam 2-C): 193 µM

Next compound, CC50 at 24 h to be filled in.
IN: Given the compound CC(C)C[C@@H]1NC(=O)[C@H](CCN)NC(=O)[C@H](CCN)NC(=O)[C@H](CC(C)C)NC(=O)[C@@H](Cc2ccccc2)NC(=O)[C@H](CCN)NC(=O)[C@@H](NC(=O)[C@@H](CCN)NC(=O)CCCCCCCO)CCNC1=O [compound 6522] (X5-[dDab][Dab][Dab][dF]L[Dab][Dab]L; lactam 2-C) , what is its reported CC50 at 24 h?
OUT: > 300 µM

====

Each entry below lists one item and its recorded MIC P. aeruginosa GN_043, PmxR value.
system: P. aeruginosa GN_043, PmxR; conditions: P. aeruginosa GN_043, PmxR
Positions of bridges follow the written chain, without caps; N, C: chain ends. Non-standard residues stand in square brackets, D forms with d. Residues, ends and D or L forms follow the SMILES beside them. *: point of attachment. Decanoyl(3R-OH) = CCCCCCC[C@@H](O)CC(=O)*; X12 = O=C(c1ccn(-c2ccccc2)c(=O)c1)*; Undecanoyl = CCCCCCCCCCC(=O)*; X4 = CCCCCOc1ccc(C(=O)*)cc1; X9 = CCCCCC1CCC(C(=O)*)CC1; dDab = NCC[C@@H](N)C(=O)O; dDap = NC[C@@H](N)C(=O)O; Dab = NCC[C@H](N)C(=O)O
Enter your answer as a number in µg/mL; do not include the unit.

Record excerpt, results attached:
CCCCCOc1ccc(C(=O)N[C@H](CCN)C(=O)N[C@H]2CCNC(=O)[C@H](CC(C)C)NC(=O)[C@H](CCN)NC(=O)[C@H](CCN)NC(=O)[C@H](Cc3ccccc3)NC(=O)[C@@H](CC(C)C)NC(=O)[C@H](CCN)NC2=O)cc1 [compound 6520] (X4-[dDab][Dab][Dab][dL]F[Dab][Dab]L; lactam 2-C): 4
CC(C)C[C@@H]1NC(=O)[C@H](CCN)NC(=O)[C@H](CCN)NC(=O)[C@H](CC(C)C)NC(=O)[C@@H](Cc2ccccc2)NC(=O)[C@H](CCN)NC(=O)[C@@H](NC(=O)[C@@H](CN)NC(=O)c2ccn(-c3ccccc3)c(=O)c2)CCNC1=O [compound 9189] (X12-[dDap][Dab][Dab][dF]L[Dab][Dab]L; lactam 2-C): 4
CCCCCCCCCCC(=O)N[C@H](CN)C(=O)N[C@H]1CCNC(=O)[C@H](CC(C)C)NC(=O)[C@H](CCN)NC(=O)[C@H](CCN)NC(=O)[C@H](CC(C)C)NC(=O)[C@@H](Cc2ccccc2)NC(=O)[C@H](CCN)NC1=O [compound 9296] (Undecanoyl-[dDap][Dab][Dab][dF]L[Dab][Dab]L; lactam 2-C): 1

IN: MIC P. aeruginosa GN_043, PmxR of CCCCCCC[C@@H](O)CC(=O)N[C@H](CCN)C(=O)N[C@H]1CCNC(=O)[C@H]([C@@H](C)O)NC(=O)[C@H](CCN)NC(=O)[C@H](CCNC(=O)[C@@H](N)CCCNC(=N)N)NC(=O)[C@H](CC(C)C)NC(=O)[C@@H](Cc2ccccc2)NC(=O)[C@H](CCN)NC1=O [compound 6656] ({Decanoyl(3R-OH)}-[dDab][Dab][Dab][dF]L[Dab](Arg)[Dab]T; lactam 2-C) on P. aeruginosa GN_043, PmxR?
OUT: 8

IN: MIC P. aeruginosa GN_043, PmxR of CCCCCC1CCC(C(=O)N[C@H](CCN)C(=O)N[C@H]2CCNC(=O)[C@H]([C@@H](C)O)NC(=O)[C@H](CCN)NC(=O)[C@H](CCN)NC(=O)[C@H](CC(C)C)NC(=O)[C@@H](Cc3ccccc3)NC(=O)[C@H](CCN)NC2=O)CC1 (stereo partly drawn) [compound 6404] (X9-[dDab][Dab][Dab][dF]L[Dab][Dab]T; lactam 2-C) on P. aeruginosa GN_043, PmxR?
OUT: 32
